# measured-target: Procathepsin L (Homo sapiens)
# Sequence (P07711 whole entry): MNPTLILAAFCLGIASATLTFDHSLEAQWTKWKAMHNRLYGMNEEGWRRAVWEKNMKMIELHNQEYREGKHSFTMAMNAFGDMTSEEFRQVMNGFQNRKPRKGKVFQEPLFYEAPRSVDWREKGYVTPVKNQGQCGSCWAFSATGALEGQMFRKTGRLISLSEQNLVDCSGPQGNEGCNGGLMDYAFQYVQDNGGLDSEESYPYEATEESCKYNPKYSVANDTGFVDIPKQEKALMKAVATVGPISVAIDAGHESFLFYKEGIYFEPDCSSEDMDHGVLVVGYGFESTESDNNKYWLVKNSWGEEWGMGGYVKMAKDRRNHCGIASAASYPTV
# protocol-summary: Inhibitory constant against human cathepsin L using Z-Phe-Arg-AMC substrate
# condition-summary: read-out: Ki app
pKi: −log10 of the molar value.
Here, each record is paired with measured pKi data.
assay-readout: pKi

smiles-data: N#CCNC(=O)C1(NC(=O)CCc2ccccc2)CCCCC1
qualifier-operator: <
reported: 3.82

smiles-data: N#CCNC(=O)[C@H](Cc1ccc2ccccc2c1)NC(=O)OCc1ccccc1
qualifier-operator: =
reported: 7.27

smiles-data: CN(C)c1ccc(-c2ccc(C(=O)NC3(C(=O)NCC#N)CCCCC3)cc2)cc1
qualifier-operator: =
reported: 5.49

smiles-data: N#CCNC(=O)C1(NC(=O)c2ccc(-c3csc(N4CC[C@@H](N)C4)n3)cc2)CCCCC1
qualifier-operator: =
reported: 5.12

smiles-data: N#CCNC(=O)C1(NC(=O)c2ccc(-c3ccc(-c4ccno4)cc3)cc2)CCCCC1
qualifier-operator: =
reported: 6.38

smiles-data: N#CCNC(=O)C1(NC(=O)c2ccc(-c3csc(N4CCC(N5CCOCC5)CC4)n3)cc2)CCCCC1
qualifier-operator: =
reported: 4.80

smiles-data: N#CCNC(=O)C1(NC(=O)c2ccc(-c3ccc(S(=O)(=O)N4CCNCC4)cc3)cc2)CCCCC1
qualifier-operator: =
reported: 6.37

smiles-data: N#CCNC(=O)C1(NC(=O)c2ccc(-c3csc(N4CCOCC4)n3)cc2)CCCCC1
qualifier-operator: =
reported: 4.13

smiles-data: N#CCNC(=O)C1(NC(=O)OCc2ccccc2)CCCCC1
qualifier-operator: =
reported: 4.02

smiles-data: CN1CCN(C(=O)c2ccc(C(=O)NC3(C(=O)NCC#N)CCCCC3)cc2)CC1
qualifier-operator: <
reported: 3.82

====

# Tested on: Rattus norvegicus
# protocol-summary: Mean residence time in rat administered with 0.5 mg/kg, iv
# Assay type: functional, organism-based
# Set-up: dose 0.5 mg/kg
Here, each record is paired with measured MRT data.

molecule: N#CCNC(=O)C1(NC(=O)c2ccc(-c3ccc(S(=O)(=O)N4CCN(CC(F)(F)F)CC4)cc3)cc2)CCCCC1
MRT / h: 0.65

molecule: N#CCNC(=O)C1(NC(=O)c2ccc(-c3ccc(S(=O)(=O)N4CCNCC4)cc3)cc2)CCCCC1
MRT / h: 0.667

molecule: CN1CCC(C)(c2nc(-c3ccc(C(=O)NC4(C(=O)NCC#N)CCCCC4)cc3)cs2)CC1
MRT / h: 2.33

molecule: CN1CCCC(Oc2ccc(-c3ccc(C(=O)NC4(C(=O)NCC#N)CCCCC4)cc3)cc2)C1 (centres undefined)
MRT / h: 1.35

molecule: CN1CCN(N(C)c2nc(-c3ccc(C(=O)NC4(C(=O)NCC#N)CCCCC4)cc3)cs2)CC1
MRT / h: 1.03

molecule: CC(C)(C)N1CCN(c2ccc(-c3ccc(C(=O)NC4(C(=O)NCC#N)CCCCC4)cc3)cc2)CC1
MRT / h: 2.87

molecule: N#CCNC(=O)C1(NC(=O)c2ccc(-c3csc(OC4CCNCC4)n3)cc2)CCCCC1
MRT / h: 1.23

molecule: CC(C)(C)NC1CCN(c2ccc(-c3ccc(C(=O)NC4(C(=O)NCC#N)CCCCC4)cc3)cc2)CC1
MRT / h: 2.17

molecule: CN(C)C1CCN(c2nc(-c3ccc(C(=O)NC4(C(=O)NCC#N)CCCCC4)cc3)cs2)C1 (centres undefined)
MRT / h: 0.683
